Field: Kd. Provide a value for each of the binders that follow.
Subject of test: T1, Rat serum albumin (RSA) (rat, UniProt P02770 25-608)
T1 construct: Bought protein (Sigma); also called rat albumin
Procedure text: ELISA on coated rat albumin, anti-human Fc HRP, A650, one site-total binding fit
Enter your answer as a number in nM; do not include the unit.

## Task Consider the binder shown here: 4A01v3-1 (Fc fusion, not shown: a dimerising Fc or GST; small tags and cut ends, also called Hz4A01v3-1) VHH: EVQLVESGGGEVQPGGSLRLSCAASGFTFSTSGMVWVRQAPGKGLEWVSTISDDARIIRYAESVKGRFTISRDNAKNTLYLQMNSLRAEDTAVYYCATYRAGSRIGSYEDYYRGQGTLVTVKP What is its recorded Kd?
## Result 0.13

## Task Same question for 4A01v3-5 (Fc fusion, also called Hz4A01v3-5; not shown: Human Fc carrier and its linker) VHH: EVQLVESGGGEVQPGGSLRLSCAASGFAFSTSGMVWYRQAPGKGLEWVSTISDDARIIRYAESVKGRFTISRDNAKNTLYLQMNSLRAEDTAVYYCATYRAGSRIGSYEDYYRGQGTLVTVKP please.
## Result 0.162

## Task Same question for 4A01v9 (Fc fusion, not shown: a dimerising Fc or GST; small tags and cut ends, also called Hz4A01v9) VHH: EVQLVESGGGEVQPGGSLRLSCAASGFAFSTSGMVWVRQAPGKGLEWVSTISDDTRIIRYAESVKGRFTISRDNAKNTLYLQMNSLRAEDTAVYYCATYRAGSRIGSYEDYYRGQGTLVTVKP please.
## Result 0.144

## Task Same question for 4A01v3-4 (Fc fusion, also called Hz4A01v3-4; not shown: Human Fc carrier and its linker) VHH: EVQLVESGGGEVQPGGSLRLSCAASGFAFSTSGMSWVRQAPGKGLEWVSTISDDARIIRYAESVKGRFTISRDNAKNTLYLQMNSLRAEDTAVYYCATYRAGSRIGSYEDYYRGQGTLVTVKP please.
## Result 0.252

## Task Same question for 4A01v3 (Fc fusion, also called Hz4A01v3; not shown: Human Fc carrier and its linker) VHH: EVQLVESGGGEVQPGGSLRLSCAASGFAFSTSGMVWVRQAPGKGLEWVSTISDDARIIRYAESVKGRFTISRDNAKNTLYLQMNSLRAEDTAVYYCATYRAGSRIGSYEDYYRGQGTLVTVKP please.
## Result 0.162

## Task Same question for 4A01v3-8 (Fc fusion, also called Hz4A01v3-8; not shown: Human Fc carrier and its linker) VHH: EVQLVESGGGEVQPGGSLRLSCAASGFAFSTSGMVWVRQAPGKGLEWVSTISDDARIIRYAESVKGRFTISRDNAKNTLYLQMNSLRAEDTAVYYCATYRAGSRIGSYEDYYWGQGTLVTVKP please.
## Result 0.169

## Task Same question for 4A01v1 (Fc fusion, also called Hz4A01v1; not shown: Human Fc carrier and its linker) VHH: EVQLVESGGGEVQPGGSLRLSCAASGFAFSTSGMVWVRQAPGKGLEWVSTISDDSRIIRYAESVKGRFTISRDNAKNTLYLQMNSLRAEDTAVYYCATYRAGSRIGSYEDYYRGQGTLVTVKP please.
## Result 0.184

## Task Same question for 4A01-NNT-hFc (Fc fusion, Monomeric sdAb-Fc fusion (Fc S364N, Y407N, K409T = NNT); also called 1m4A01; anti-albumin sdAb 4A01) QVQLQESGGGLVQPGGSLRLSCAASGFAFSTSGMVWVRQATGKGLEWVSTISDDSRIIRYADSVNGRFTISRDNAENTLYLLMNSLKPEDTAVYYCATYRAGSRIGSYEDYYRGQGTQVTVSSGGPSVFLFPPKPKDTLMISRTPEVTCVVVDVSHEDPEVKFNWYVDGVEVHNAKTKPREEQYNSTYRVVSVLTVLHQDWLNGKEYKCKVSNKALPAPIEKTISKAKGQPREPQVYTLPPSRDELTKNQVNLTCLVKGFYPSDIAVEWESNGQPENNYKTTPPVLDSDGSFFLNSTLTVDKSRWQQGNVFSCSVMHEALHNHYTQKSLSLSPG please.
## Result 0.144

## Task Same question for 4A01v3-3 (Fc fusion, not shown: a dimerising Fc or GST; small tags and cut ends, also called Hz4A01v3-3) VHH: EVQLVESGGGEVQPGGSLRLSCAASGFAFSTSGMAWVRQAPGKGLEWVSTISDDARIIRYAESVKGRFTISRDNAKNTLYLQMNSLRAEDTAVYYCATYRAGSRIGSYEDYYRGQGTLVTVKP please.
## Result 0.152
